Taken from patent US20060067886A1.

- Assay Details: Biodistribution of radiometal-DOTA-BBN conjugates in CF1 normal mice
- Measurement Context: 1 hour post-injection
# note: exactly 0.2 % ID/gm is not below, so it is class 0; use class 1 for Avg % ID/gm, Lung strictly under it

{"columns": ["Molecule", "Label"],
 "data": [
  ["CSCC[C@H](NC(=O)[C@H](CC(C)C)NC(=O)[C@H](Cc1cnc[nH]1)NC(=O)CNC(=O)[C@@H](NC(=O)[C@H](C)NC(=O)[C@H](Cc1c[nH]c2ccccc12)NC(=O)[C@H](CCC(N)=O)NC(=O)CN1CCN(CC(=O)O)CCN(CC(=O)O)CCN(CC(=O)O)CC1)C(C)C)C(N)=O [177Lu-DOTA-0-BBN[7-14]NH2] [metal not drawn]", "class 1"],
  ["CSCC[C@H](NC(=O)[C@H](CC(C)C)NC(=O)[C@H](Cc1cnc[nH]1)NC(=O)CNC(=O)[C@@H](NC(=O)[C@H](C)NC(=O)[C@H](Cc1c[nH]c2ccccc12)NC(=O)[C@H](CCC(N)=O)NC(=O)CCCCCCCNC(=O)CN1CCN(CC(=O)O)CCN(CC(=O)O)CCN(CC(=O)O)CC1)C(C)C)C(N)=O [149Pm-DOTA-8-Aoc-BBN[7-14]NH2]", "class 1"],
  ["CSCC[C@H](NC(=O)[C@H](CC(C)C)NC(=O)[C@H](Cc1cnc[nH]1)NC(=O)CNC(=O)[C@@H](NC(=O)[C@H](C)NC(=O)[C@H](Cc1c[nH]c2ccccc12)NC(=O)[C@H](CCC(N)=O)NC(=O)CN1CCN(CC(=O)O)CCN(CC(=O)O)CCN(CC(=O)O)CC1)C(C)C)C(N)=O [149Pm-DOTA-0-BBN[7-14]NH2]", "class 1"],
  ["CSCC[C@H](NC(=O)[C@H](CC(C)C)NC(=O)[C@H](Cc1c[nH]cn1)NC(=O)CNC(=O)[C@@H](NC(=O)[C@H](C)NC(=O)[C@H](Cc1c[nH]c2ccccc12)NC(=O)[C@H](CCC(N)=O)NC(=O)CCCCNC(=O)CN1CCN(CC(=O)O)CCN(CC(=O)O)CCN(CC(=O)O)CC1)C(C)C)C(N)=O [177Lu-DOTA-5-Ava-BBN[7-14]NH2] [metal not drawn]", "class 0"],
  ["CSCC[C@H](NC(=O)[C@H](CC(C)C)NC(=O)[C@H](Cc1cnc[nH]1)NC(=O)CNC(=O)[C@@H](NC(=O)[C@H](C)NC(=O)[C@H](Cc1c[nH]c2ccccc12)NC(=O)[C@H](CCC(N)=O)NC(=O)CCNC(=O)CN1CCN(CC(=O)O)CCN(CC(=O)O)CCN(CC(=O)O)CC1)C(C)C)C(N)=O [177Lu-DOTA-β-Ala-BBN[7-14]NH2] [metal not drawn]", "class 0"]
]}
